Reference for the values: BindingDB's records for doi:10.1016/j.bmcl.2006.12.028

TARGET_UNDER_TEST: Histone deacetylase HD1-A (Zea mays)
ASSAY_DETAILS: Inhibition of maize HD1-A (mean)
READOUT_NAME: IC50 (nM)
Quick reminder: number only, in nM, skip the unit.

Qu. Consider the compound shown here: `O=C(CCCCSc1nc(-c2ccc(Cl)cc2)cc(=O)[nH]1)NO` What is its recorded IC50?
Ans. 2.83
